- Measured target: CYP3A4 (Homo sapiens)
- Construct: pre-incubated with human liver microsomes and NADPH; from tissue; host or cells: human liver microsomes
- Sequence (P08684 whole entry): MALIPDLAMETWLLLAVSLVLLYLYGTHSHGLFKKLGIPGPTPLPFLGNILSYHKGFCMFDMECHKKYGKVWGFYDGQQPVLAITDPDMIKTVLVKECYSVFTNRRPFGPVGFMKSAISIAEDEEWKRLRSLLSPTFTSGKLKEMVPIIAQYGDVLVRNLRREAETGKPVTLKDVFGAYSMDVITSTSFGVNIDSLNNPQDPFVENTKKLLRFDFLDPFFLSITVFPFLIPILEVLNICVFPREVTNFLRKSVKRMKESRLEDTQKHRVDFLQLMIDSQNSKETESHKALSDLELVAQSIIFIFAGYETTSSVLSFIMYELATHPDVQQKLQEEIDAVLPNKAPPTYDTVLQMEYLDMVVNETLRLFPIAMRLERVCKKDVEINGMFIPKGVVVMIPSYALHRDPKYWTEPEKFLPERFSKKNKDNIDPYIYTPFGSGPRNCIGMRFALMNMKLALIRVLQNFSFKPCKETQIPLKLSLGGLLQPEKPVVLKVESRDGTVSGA
- Test details: Cytochrome P450 inhibition assay (midazolam hydroxylation)
- Type: in vitro ADME
- Experimental parameters: human, human liver microsomes, probe midazolam (hydroxylation to 1′-hydroxymidazolam), 10 μM test compound, midazolam at approximately its Km
Readout label: inhibition at 10 µM (%)

These solved cases illustrate the format of a correct answer.
Smiles str | Unit text | Readout number
Cc1ccc(-c2ccccn2)c(C(=O)N2CCC[C@@H](C)[C@H]2CNc2nc3cc(F)ccc3o2)c1 | % | 88
Cc1ccc(-c2ccnc(C)n2)c(C(=O)N2CCC[C@@H](C)[C@H]2CNc2nc3cc(Cl)ccc3o2)c1 | % | 95

I = Cc1ccc(-n2nccn2)c(C(=O)N2CCC(F)(F)C[C@H]2CNc2ccc(Cl)cn2)c1
II = Cc1cccc(C(=O)N2CCC[C@@H](C)[C@H]2CNc2ncc(C(F)(F)F)cn2)c1-c1ncccn1
In: Looking only at measured inhibition at 10 µM, which entry is lower, I or II ? // output: label of the selected item
Out: II
(II: 51%, I: 76%)

P = C[C@@H]1CCCN(C(=O)c2cc(F)ccc2-c2ncccn2)[C@@H]1CNc1ncc(C(F)(F)F)cn1
Q = Cc1ccc(-c2ccc(C)nc2)c(C(=O)N2CCC[C@@H](C)[C@H]2CNc2nc3cc(Cl)ccc3o2)c1
In: Just curious, which one has the larger inhibition at 10 µM reading, P or Q ? // output: label of the selected item
Out: Q
